# Tested on: M-07e human cytomegalic leukemia cells
# method_notes: CSF-1R-related cell proliferation experiment, KIT (Cell Titer Glo)
# Format: cell-based
# particulars: 72 h, read-out: Cytological experiment KIT IC50 (nM)
endpoint: IC50 (nM)

> print(dat)
                                   molecule  unit.annotation  result.value
1  Cc1nc(NC(=O)N2CCC(C)(C)C2=O)ccc1Cc1ccnc(-c2cnn(C)c2)c1               nM           727

(P) Cc1nc(NC(=O)N2CCC3(CCCC3)C2=O)ccc1Oc1ccnc(-c2cnn(C)c2)c1
(Q) CCn1cc(-c2cc(Oc3ccc(NC(=O)N4CCC(C)(C)C4=O)nc3C)ccn2)cn1
(R) Cc1nc(NC(=O)N2CCC(C)(C)C2=O)ccc1Oc1ccnc(-c2cnn(CCO)c2)c1
(S) CCC1(CC)CCN(C(=O)Nc2ccc(Oc3ccnc(-c4cnn(C)c4)c3)c(C)n2)C1=O
Exercise: Put the entries in order of IC50, starting with the largest number. Respond with an ordered listing of the labels, as requested.
Key: R, Q, S, P
(R: 4900 nM, Q: 1670 nM, S: 667 nM, P: 190 nM)

Data provenance: patent US11149021B2
